Test system: DU-145
Assay: Growth inhibition of human DU145 cells after 96 hrs by trypan blue exclusion assay
Format: functional
Conditions: DU-145, 96 h
measured.attribute: GI50 (µM)

Sample answers from the record:
Cc1ccc(S/C(=C/c2sccc2C)C(=O)c2ccc(Cl)cc2)cc1: 50
O=C(/C(=C\c1ccc(F)cc1F)S(=O)(=O)c1ccc(Br)cc1)c1ccc(Br)cc1: 7.5
O=C(/C(=C\c1ccc(Br)c(O)c1)Sc1ccc(Br)cc1)c1ccc(Br)cc1: 1

P. O=C(/C(=C\OCc1ccccc1)S(=O)(=O)c1ccccc1Cl)c1ccc(Cl)cc1
Q. CSc1ccc(/C=C(/SCc2ccc(Cl)cc2)C(=O)c2ccc(Cl)cc2)cc1
query: Param metric = GI50; output whichever of P , Q has the minimum value. Record your answer as the label of the chosen record.
result: P
(P: 1 µM, Q: 25 µM)

* * *

Target: Bcr/Abl fusion protein (Homo sapiens, UniProt P00519)
Sequence (P00519 whole entry, the tested form may be a part): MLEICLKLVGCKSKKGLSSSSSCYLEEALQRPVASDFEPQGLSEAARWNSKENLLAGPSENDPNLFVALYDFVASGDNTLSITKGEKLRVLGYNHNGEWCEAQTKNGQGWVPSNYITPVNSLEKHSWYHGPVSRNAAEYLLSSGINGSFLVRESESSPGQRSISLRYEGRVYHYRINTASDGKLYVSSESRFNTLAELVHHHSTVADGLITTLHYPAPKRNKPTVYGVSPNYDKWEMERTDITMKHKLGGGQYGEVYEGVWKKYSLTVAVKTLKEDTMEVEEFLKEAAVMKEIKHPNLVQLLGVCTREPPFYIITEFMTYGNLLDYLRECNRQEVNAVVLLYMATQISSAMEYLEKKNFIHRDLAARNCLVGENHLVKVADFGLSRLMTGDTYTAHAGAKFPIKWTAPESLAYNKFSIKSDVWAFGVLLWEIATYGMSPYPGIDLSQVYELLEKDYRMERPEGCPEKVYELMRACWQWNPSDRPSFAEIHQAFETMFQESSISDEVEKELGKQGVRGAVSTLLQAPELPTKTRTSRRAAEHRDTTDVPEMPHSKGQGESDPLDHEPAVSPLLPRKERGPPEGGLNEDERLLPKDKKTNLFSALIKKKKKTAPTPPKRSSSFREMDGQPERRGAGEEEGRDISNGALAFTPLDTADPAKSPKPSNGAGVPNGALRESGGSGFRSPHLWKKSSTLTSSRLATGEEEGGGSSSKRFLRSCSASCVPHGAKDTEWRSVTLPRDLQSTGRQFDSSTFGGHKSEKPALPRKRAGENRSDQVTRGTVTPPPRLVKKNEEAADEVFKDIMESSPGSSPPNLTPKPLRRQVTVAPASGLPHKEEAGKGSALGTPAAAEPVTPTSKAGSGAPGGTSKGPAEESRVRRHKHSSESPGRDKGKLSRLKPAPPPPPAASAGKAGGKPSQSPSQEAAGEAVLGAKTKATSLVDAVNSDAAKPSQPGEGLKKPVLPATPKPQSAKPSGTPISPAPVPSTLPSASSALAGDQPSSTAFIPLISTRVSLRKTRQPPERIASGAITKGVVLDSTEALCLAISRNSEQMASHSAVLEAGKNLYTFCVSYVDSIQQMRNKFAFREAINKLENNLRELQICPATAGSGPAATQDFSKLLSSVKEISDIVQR
Sequence (P11274 whole entry, further chain, the tested form may be a part): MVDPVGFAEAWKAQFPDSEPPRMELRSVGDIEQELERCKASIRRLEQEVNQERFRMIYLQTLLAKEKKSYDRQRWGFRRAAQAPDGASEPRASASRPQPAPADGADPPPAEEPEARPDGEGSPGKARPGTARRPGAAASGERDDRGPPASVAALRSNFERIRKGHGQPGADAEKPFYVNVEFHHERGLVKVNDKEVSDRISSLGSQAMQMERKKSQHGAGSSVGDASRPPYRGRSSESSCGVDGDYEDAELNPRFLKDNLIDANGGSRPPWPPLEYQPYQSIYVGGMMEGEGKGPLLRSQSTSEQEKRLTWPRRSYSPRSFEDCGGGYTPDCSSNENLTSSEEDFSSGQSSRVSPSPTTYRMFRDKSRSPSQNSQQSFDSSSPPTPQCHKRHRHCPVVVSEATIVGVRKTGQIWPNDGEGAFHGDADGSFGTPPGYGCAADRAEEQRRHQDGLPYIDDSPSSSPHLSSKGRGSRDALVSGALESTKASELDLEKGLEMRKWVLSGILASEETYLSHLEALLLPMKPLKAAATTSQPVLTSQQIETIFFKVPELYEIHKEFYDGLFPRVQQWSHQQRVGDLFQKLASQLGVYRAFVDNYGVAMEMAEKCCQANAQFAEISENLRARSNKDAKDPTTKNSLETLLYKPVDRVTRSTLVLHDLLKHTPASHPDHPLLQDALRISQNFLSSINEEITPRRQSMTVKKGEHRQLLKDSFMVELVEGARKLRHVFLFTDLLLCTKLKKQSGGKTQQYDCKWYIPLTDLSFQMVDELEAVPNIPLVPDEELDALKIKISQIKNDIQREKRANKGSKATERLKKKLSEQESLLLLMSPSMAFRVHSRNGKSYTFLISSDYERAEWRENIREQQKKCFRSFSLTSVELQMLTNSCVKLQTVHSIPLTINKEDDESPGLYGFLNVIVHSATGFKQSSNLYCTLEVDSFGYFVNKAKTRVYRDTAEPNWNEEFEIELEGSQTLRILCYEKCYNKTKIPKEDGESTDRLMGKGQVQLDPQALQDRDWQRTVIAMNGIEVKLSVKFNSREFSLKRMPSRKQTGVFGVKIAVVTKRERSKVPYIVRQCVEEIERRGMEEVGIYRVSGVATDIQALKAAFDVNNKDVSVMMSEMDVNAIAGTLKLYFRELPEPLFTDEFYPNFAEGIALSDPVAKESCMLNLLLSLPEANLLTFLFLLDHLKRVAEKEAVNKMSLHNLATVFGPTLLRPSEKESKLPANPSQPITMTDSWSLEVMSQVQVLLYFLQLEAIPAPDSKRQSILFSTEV
Experiment: Inhibition of BCR/ABL p210 autophosphorylation in human K562 cells after 2 hrs by Western blot analysis
Format: cell-based
measured.attribute: IC50 (nM)

Consider the worked cases shown below.
O=C(O)c1ccc(C(=O)/C(=C\c2ccc(F)c([N+](=O)[O-])c2)SCc2ccc(Cl)cc2Cl)cc1: 2500
O=C(O)c1ccc(C(=O)/C(=C\c2ccc(Cl)c([N+](=O)[O-])c2)SCc2ccc(F)cc2)cc1: 2500

a. O=C(O)c1ccc(C(=O)/C(=C\c2ccc(Cl)c([N+](=O)[O-])c2)SCc2ccc(Cl)cc2)cc1
b. O=C(O)c1ccc(C(=O)/C(=C\c2ccc(Br)c([N+](=O)[O-])c2)SCc2ccc(Cl)cc2)cc1
query: a or b : whose IC50 is greater? Please reply using the label of the selected record.
result: a
(a: 10000 nM, b: 2500 nM)

* * *

System: DU-145
Assay: Growth inhibition of human DU145 cells after 96 hrs by trypan blue exclusion assay
Assay type: functional
Conditions: DU-145, 96 h
measured.attribute: GI50 (µM)

Solved cases below.
CCOc1ccc(/C=C(\C(=O)c2ccc(Br)cc2)S(=O)(=O)c2ccc(Br)cc2)cc1OC: 1
Cc1ccc(CS(=O)(=O)/C(=C/c2sccc2C)C(=O)c2ccc(Cl)cc2)cc1: 25
O=C(/C(=C\c1ccc(Cl)cc1)S(=O)(=O)c1ccc(Cl)cc1)c1ccc(Cl)cc1: 25

A. Cc1ccc(CS(=O)(=O)/C(=C/c2c[nH]c3ccccc23)C(=O)c2ccc(Cl)cc2)cc1
B. Cc1ccc(S/C(=C/c2ccc(Cl)cc2Cl)C(=O)c2ccc(Cl)cc2)cc1
C. O=C(/C(=C\c1ccc(F)cc1C(F)(F)F)S(=O)(=O)Cc1ccc(Cl)c(Cl)c1)c1ccc(Cl)cc1
D. Cc1ccc(S/C(=C/c2ccc(Cl)c(Cl)c2)C(=O)c2ccc(Br)cc2)cc1
query: Ascending by GI50, please. Write out the labels following the order that was asked for.
result: C, B, A, D

A. Cc1ccc(S/C(=C/c2ccc[nH]2)C(=O)c2ccc(Cl)cc2)cc1
B. O=C(/C(=C\c1ccccc1OCc1ccccc1)S(=O)(=O)c1ccc(F)cc1)c1ccc(Cl)cc1
query: Higher GI50 between A and B ? Your answer should be the label attached to the chosen record.
result: A

* * *

System: DU-145
Assay: Growth inhibition of human DU145 cells after 96 hrs by trypan blue exclusion assay
Assay type: functional
Details: DU-145, 96 h
measured.attribute: GI50 (µM)

O=C(/C(=C\c1c(O)cc(O)cc1O)Sc1ccc(Br)cc1)c1ccc(Cl)cc1: 50
COc1ccc(/C=C(/Sc2ccc(Br)cc2)C(=O)c2ccc(Cl)cc2)cc1: 50
O=C(/C(=C\c1ccc(Br)c([N+](=O)[O-])c1)Sc1ccc(Br)cc1)c1ccc(Br)cc1: 1

I. COc1ccc(C(=O)/C(=C\c2c(OC)cc(OC)cc2OC)Sc2ccc(F)cc2)cc1
II. O=C(O)c1ccc(C(=O)/C(=C\c2ccc(F)c([N+](=O)[O-])c2)SCc2ccc(F)cc2)cc1
III. COc1cc(OC)c(C=C(C(=O)c2ccc(Cl)cc2)[S+]([O-])Cc2ccccc2Cl)c(OC)c1 (centres undefined)
query: Task for the reader: rank each entry by its GI50, from the minimum upward. Please, when replying, give the labels in the order that was requested.
result: II, III, I

* * *

Test system: DU-145
Assay: Growth inhibition of human DU145 cells after 96 hrs by trypan blue exclusion assay
Type: functional
Conditions: DU-145, 96 h
measured.attribute: GI50 (µM)

Consider the following illustrative entries.
O=C(O)c1cc(/C=C(/Sc2ccc(Br)cc2)C(=O)c2c(F)c(F)c(F)c(F)c2F)ccc1O: 25
O=C(/C(=C\c1csc([N+](=O)[O-])c1)S(=O)(=O)c1ccc(Br)cc1)c1ccc(Br)cc1: 1
O=C(/C(=C\c1cc(Cl)cc(Cl)c1Cl)SCc1ccc(Cl)cc1)c1ccc(Br)cc1: 1
O=C(/C(=C\c1ccc(Cl)cc1)Sc1ccc(Cl)cc1)c1ccc(Cl)cc1: 1
O=C(/C(=C/c1ccc(Cl)cc1)Cc1ccc(Cl)cc1)c1ccc(Cl)cc1Cl: 10
Cc1ccc(CS/C(=C/c2ccccc2Br)C(=O)c2ccc(Cl)cc2)cc1: 10

a. CN(C)c1ccc(/C=C(\C(=O)c2ccc(Br)cc2)S(=O)(=O)Cc2ccc(F)cc2)cc1
b. O=C(C(=Cc1ccc(Br)cc1)S(=O)(=O)Cc1ccc(I)cc1)c1ccc(I)cc1
query: Compare a and b by numeric GI50 and name the larger one. Use the label to indicate which entry you chose.
result: a
(a: 50 µM, b: 20 µM)

* * *

Tested on: DU-145
Test: Growth inhibition of human DU145 cells after 96 hrs by trypan blue exclusion assay
Type: functional
Settings: DU-145, 96 h
measured.attribute: GI50 (µM)

O=C(O)c1ccc(C(=O)/C(=C\c2ccc(O)c(Br)c2)SCc2ccc(Br)cc2)cc1: 25
O=C(/C(=C\c1ccc(F)cc1Cl)Sc1ccc(Br)cc1)c1ccc(Br)cc1: 1

1. Cc1ccc(CS/C(=C/c2ccc(C(=O)O)cc2)C(=O)c2ccc(Cl)c([N+](=O)[O-])c2)cc1
2. O=C(C(=Cc1ccc(Br)cc1)S(=O)(=O)Cc1ccccc1Cl)c1ccc(Cl)cc1
query: Short answer wanted: higher GI50, 1 or 2 ? Please reply using the label of the selected record.
result: 1
(1: 10 µM, 2: 1 µM)

* * *

Target: Bcr/Abl fusion protein (Homo sapiens)
Experiment: Inhibition of BCR/ABL p210 autophosphorylation in human K562 cells after 2 hrs by Western blot analysis
Type: cell-based
pIC50: −log10 of the molar value.
measured.attribute: pIC50

# count of solved cases: 4
O=C(O)c1ccc(C(=O)/C(=C\c2ccc(F)c([N+](=O)[O-])c2)SCc2ccccc2)cc1: 5.60
COC(=O)c1ccc(C(=O)/C(=C\c2ccc(F)c([N+](=O)[O-])c2)SCc2ccc(Br)cc2)cc1: 6.12
O=C(O)c1ccc(C(=O)/C(=C\c2ccc(Br)c([N+](=O)[O-])c2)SCc2ccc(F)cc2)cc1: 4.82
O=C(O)c1ccc(C(=O)/C(=C\c2ccc(F)c([N+](=O)[O-])c2)SCc2ccc(Cl)cc2)cc1: 5.60

P. O=C(O)c1ccc(C(=O)/C(=C\c2ccc(Cl)c([N+](=O)[O-])c2)SCc2ccc(Br)cc2)cc1
Q. O=C(O)c1ccc(C(=O)/C(=C\c2ccc(Br)c([N+](=O)[O-])c2)SCc2ccc(Cl)cc2Cl)cc1
R. O=C(/C(=C\c1ccc(F)c([N+](=O)[O-])c1)SCc1ccc(Br)cc1)c1ccc(C(=O)N2CCN(CCO)CC2)cc1
S. O=C(O)c1ccc(C(=O)/C(=C\c2ccc(F)c([N+](=O)[O-])c2)Sc2ccc(Br)cc2)cc1
query: Arrange the 4 compounds from largest to smallest pIC50. Form field (ranking): labels in requested order.
result: R, Q, P, S
(R: 6.30, Q: 5.60, P: 5.00, S: 4.70)

* * *

Tested on: DU-145
Test: Growth inhibition of human DU145 cells after 96 hrs by trypan blue exclusion assay
Assay type: functional
Conditions: DU-145, 96 h
measured.attribute: GI50 (µM)

CCOc1cc(/C=C(\SCc2ccc(Cl)cc2Cl)C(=O)c2ccc(Cl)cc2)ccc1O: 10
COc1ccsc1/C=C(\C(=O)c1ccc(Br)cc1)S(=O)(=O)Cc1ccc(Cl)cc1: 50
O=C(/C(=C\c1ccc(Cl)cc1Cl)S(=O)(=O)c1ccc(Br)cc1)c1ccc(Br)cc1: 10
CCOc1ccc(/C=C(\C(=O)c2ccc(Cl)cc2)S(=O)(=O)Cc2ccc(C)cc2)cc1OC: 10

a. COc1ccc(S(=O)(=O)/C(=C/c2ccc(Cl)cc2Cl)C(=O)c2ccc(Br)cc2)cc1
b. COc1ccc(/C=C(/SCc2ccc(Cl)cc2)C(=O)c2ccc(Br)cc2)cc1
query: Kindly compare a with b and tell me which has the lower GI50 figure. Pick one and reply with its label.
result: b

a. COc1cc(OC)c(C=C(SCc2ccccc2Cl)C(=O)c2ccc(Cl)cc2)c(OC)c1
b. CSc1ccc(/C=C(\C(=O)c2ccc(Cl)cc2)S(=O)(=O)Cc2ccc(C)cc2)cc1
query: // pick min by GI50: a , b Provide the label of your selected option as the answer.
result: b
